# TARGET_DESC: Pro-neuregulin-1, membrane-bound isoform (Homo sapiens) (UniProt Q02297)
# Sequence (Q02297 whole entry, looked up, canonical isoform): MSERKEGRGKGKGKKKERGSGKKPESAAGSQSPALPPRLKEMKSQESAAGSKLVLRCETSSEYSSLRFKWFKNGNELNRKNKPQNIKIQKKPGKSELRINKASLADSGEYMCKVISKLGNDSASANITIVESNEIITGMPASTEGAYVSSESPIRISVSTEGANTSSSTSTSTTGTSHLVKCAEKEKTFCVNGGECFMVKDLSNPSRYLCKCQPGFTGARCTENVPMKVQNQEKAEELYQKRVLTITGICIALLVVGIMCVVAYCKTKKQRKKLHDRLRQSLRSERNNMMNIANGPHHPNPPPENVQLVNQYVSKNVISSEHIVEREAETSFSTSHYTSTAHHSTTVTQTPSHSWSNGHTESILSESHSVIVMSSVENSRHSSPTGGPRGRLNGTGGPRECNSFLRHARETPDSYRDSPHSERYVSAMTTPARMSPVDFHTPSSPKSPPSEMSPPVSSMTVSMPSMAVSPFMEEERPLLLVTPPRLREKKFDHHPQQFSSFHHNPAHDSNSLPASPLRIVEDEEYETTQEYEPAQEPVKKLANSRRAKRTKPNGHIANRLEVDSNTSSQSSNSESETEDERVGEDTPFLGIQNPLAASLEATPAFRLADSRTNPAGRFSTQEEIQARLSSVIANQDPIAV
# METHOD: NRG1 binders on small-molecule microarrays, primary screen, psychiatric disease protein project, biochemical, small-molecule microarray, fluorescence 635/667 (AID 1075);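 also: score combines 667 nm spot fluorescence with signal to noise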
# STATED_CONDITIONS: NRG1 binding, 635 nm fluorescence, higher = more signal
Parameter composite z-score: see the listing below.
Lab note: jot the number down without any unit.

Guide cases for composite z-score, answers given:
- CCCCCN1CC=CC23O[C@@H]4/C=C\CCC(C)OC(=O)C4[C@H]2C(=O)N(CCCCCO)[C@@H]3C1=O (some centres undefined): 0.948
- CCOC(=O)C1=C[C@@H](C(C)C)N(S(=O)(=O)c2ccc(C)cc2)[C@H]1c1ccc(C(C)C)cc1: 0.609
- C[C@]1(C(=O)NCc2ccccc2)c2ccccc2C(=O)N(Cc2cc(F)cc(C(F)(F)F)c2)[C@H]1c1ccc(CO)cc1: -0.353

QUERY: Missing value: composite z-score, Pro-neuregulin-1, membrane-bound isoform (Homo sapiens) (UniProt Q02297), entry COC(=O)[C@@]1(Cc2ccc(F)cc2)[C@H]2c3cc(C(=O)N4CCCC4)n(Cc4cccc5ccccc45)c3C[C@H]2CN1C(=O)c1ccccc1 . Fill in?
RESULT: 2.16

###

# METHOD: basal 3T3-L1 adipocyte mitochondrial potential changes, profiling panel, cell-based, JC-1 fluorescence, 3T3-L1 adipocytes, 24 h, 100 nL compound (AID 1168); also: test concentration not given here
# STATED_CONDITIONS: JC-1 mitochondrial fluorescence, higher = more signal, called active from +8 up or from −8 down
Activity calls are given as the source filed them.
PROPERTY_LABEL: z-score

Look over these answered cases.
• [N-]=[N+]=NCc1ccccc1C[C@]1(C(=O)NCC(O)CO)N=C(c2ccc(OCCCO)cc2)O[C@H]1c1ccccc1N=[N+]=[N-] (some centres not stated) = 1.19 (inactive)
• CCOC(=O)C[C@H]1[C@H](OC(=O)c2ccc(-c3ccccc3)cc2)[C@@H](NC(=O)Cc2ccc(OC)cc2)c2cc(OCCCO)ccc2N1C(=O)c1ccc2ccccc2n1 = 0.824 (inactive)
• O=C1OCC=C[C@H]2OC34C=CCN(c5ccc(Cl)cc5)C(=O)[C@H]3N(CCCCCCO)C(=O)[C@@H]4[C@@H]12 (some centres not stated) = 0.26 (inactive)
• NCCCCCNC(=O)[C@H]1C[C@H]2C(=O)NCC(=O)N2[C@H]1c1cccc(OCCO)c1 = 1.18 (inactive)

QUERY: Look up z-score: CCOC(=O)C[C@H]1[C@H](OC(=O)c2ccccc2-c2ccccc2)[C@@H](NC(=O)Cc2ccc(OC)cc2)c2cc(OCCCO)ccc2N1C(=O)c1ccccc1
RESULT: 0.0962 (inactive)

QUERY: And for O=C/C=C/c1ccc2c(c1)OCO2 ?
RESULT: -0.0743 (inactive)

QUERY: Here is the next compound: CC(C)N1CC=CC23O[C@@H]4C=CCOC(=O)[C@@H]4[C@H]2C(=O)N(CCO)[C@@H]3C1=O (some centres not stated)
RESULT: 0.0611 (inactive)

QUERY: Subsequent entry: CCCNC(=O)[C@@]1(c2ccc([N+](=O)[O-])cc2)CC(=O)N(CC23CC4CC(CC(C4)C2)C3)[C@@H]1c1ccc(CO)cc1
RESULT: -0.141 (inactive)

QUERY: Same for COCCOC(=O)N1C(=O)[C@@]2(c3cc(C#CCC(C(=O)OC)C(=O)OC)ccc31)[C@H](c1ccccc1OCCO)N1[C@H](c3ccccc3)[C@H](c3ccccc3)OC(=O)[C@H]1[C@@H]2C(N)=O
RESULT: 1.69 (inactive)

QUERY: How about COCCOC(=O)N1C(=O)[C@@]2(c3cc(C#CCNC(N)=O)ccc31)[C@H](c1ccc(OCCO)cc1)N1[C@H](c3ccccc3)[C@H](c3ccccc3)OC(=O)[C@H]1[C@@H]2C(=O)N1CCc2cc(OC)c(OC)cc2C1 ?
RESULT: 1.65 (inactive)

QUERY: Please do the same for COCCOC(=O)N1C(=O)[C@@]2(c3cc(C#CCC(C(=O)OC)C(=O)OC)ccc31)[C@H](C(=O)N1CCN(c3ncccn3)CC1)[C@H]1C(=O)O[C@H](c3ccccc3)[C@H](c3ccccc3)N1[C@@H]2c1ccc(OCCO)cc1 as well.
RESULT: 1.86 (inactive)

QUERY: Repeat with C=CC[C@@]1(C(=O)NCC(O)CO)N=C(c2ccc(OCCCO)cc2)O[C@@H]1c1ccccc1N=[N+]=[N-] (some centres not stated)
RESULT: -0.343 (inactive)

QUERY: Same thing, different compound: COC(=O)[C@]1(Cc2ccccc2N=[N+]=[N-])N=C(c2ccc(OCCCO)cc2)O[C@@H]1c1ccccc1N=[N+]=[N-]
RESULT: -0.708 (inactive)

QUERY: Next compound: COc1ccc(C(=O)Nc2cccc(CN3C(=O)[C@@]4(O[C@@H](CCn5cc(CCO)nn5)[C@H]([Si](C)(C)c5ccc(OC)cc5)[C@H]4C)c4ccccc43)c2)cc1
RESULT: 0.285 (inactive)

QUERY: Same read-out for COC(=O)c1ccc(OC)c(/C=C\CC(OC(C)=O)c2ccccc2)c1 (configuration not stated) ?
RESULT: -1.15 (inactive)

QUERY: What do you get for CCCC[C@@H]1C[C@H]1[C@@H](NC(=O)c1ccc(-c2ccccc2)cc1)c1ccc(-c2ccccc2)cc1 ?
RESULT: -0.949 (inactive)

QUERY: Input C=CCOC(=O)[C@H]1[C@@H]2C(=O)O[C@@H](c3ccccc3)[C@@H](c3ccccc3)N2[C@@H](c2ccc(OCCOC(=O)[C@@H]3C[C@@H]4C(=O)N5CCC[C@H]5C(=O)N4[C@@H]3c3ccc(O)cc3)cc2)[C@]12C(=O)Nc1ccccc12
RESULT: 1.74 (inactive)

QUERY: Same question, CCOC(=O)C1=C[C@@H](C(C)C)N(S(=O)(=O)c2ccc(C)cc2)[C@H]1c1ccc(C(C)C)cc1 this time
RESULT: -0.0264 (inactive)

QUERY: Next compound up: COCCOC(=O)N1C(=O)[C@@]2(c3cc(C#Cc4ccc(OC)cc4)ccc31)[C@H](C(=O)N1CCN(c3ncccn3)CC1)[C@H]1C(=O)O[C@H](c3ccccc3)[C@H](c3ccccc3)N1[C@@H]2c1ccc(O)cc1
RESULT: 2.2 (inactive)

QUERY: Again, but for C=CCNC(=O)[C@@H]1[C@H]2C(=O)O[C@H](c3ccccc3)[C@H](c3ccccc3)N2[C@H](c2ccccc2OCCO)[C@@]12C(=O)Nc1ccc(C#CC3=CCCCC3)cc12
RESULT: 2.32 (inactive)

QUERY: Would you mind doing Cc1ccc(S[C@]2(C(=O)NC3CC3)CC(=O)N(Cc3ccccc3)[C@@H]2c2ccc(CO)cc2)cc1 as well?
RESULT: -0.199 (inactive)

QUERY: And then Cc1cc(C)c(C(O)C2C=CC3C(=O)N(C)C(=O)C3N2Nc2ccccc2)c(C)c1 (configuration not stated) , what is it?
RESULT: -1 (inactive)

QUERY: Next entry: CCCN1C(=O)[C@]2(COC(c3ccc(OCCCO)cc3)=N2)Cc2ccccc21
RESULT: -0.919 (inactive)

QUERY: How about COCCOC(=O)N1C(=O)[C@@]2(c3cc(C#CCNC(N)=O)ccc31)[C@H](c1ccc(O)cc1)N1[C@H](c3ccccc3)[C@H](c3ccccc3)OC(=O)[C@H]1[C@@H]2C(=O)NC[C@H](O)c1ccccc1 ?
RESULT: -0.563 (inactive)

QUERY: Subsequent entry: CC(C)C[C@@H]1NC(=O)[C@@H]2C[C@H](C(=O)NCCCCCC[N+](C)(C)C)[C@H](c3ccc(O)cc3)N2C1=O
RESULT: 0.566 (inactive)

QUERY: Consider next the compound CCOC(=O)C1=CCC(C(C)(C)C)N(S(=O)(=O)c2ccc(C)cc2)C1 (configuration not stated) in the same way.
RESULT: 0.161 (inactive)

QUERY: Field entry: CC(C)c1ccc(NN2C(C(O)c3ccc(N(C)C)cc3)C=CC3C(=O)N(c4ccccc4)C(=O)C32)cc1 (configuration not stated)
RESULT: -1.22 (inactive)

These entries and their values trace back to PubChem BioAssay.
